Origin of measurements: patent US20230139700A1

Listed here: items and their measured Kd.
Molecular target: T1, hOX40-FC (human, UniProt P43489 29-216)
T1 construct: range 1-216; Made in HEK293; The stated range 1-216 starts at residue 1, so it holds the signal peptide of the entry; also called human OX40 extracellular region fused to human IgG1-Fc; not shown: human IgG1-Fc, UniProt P01857, residues 104 to 330
T1 sequence (looked up): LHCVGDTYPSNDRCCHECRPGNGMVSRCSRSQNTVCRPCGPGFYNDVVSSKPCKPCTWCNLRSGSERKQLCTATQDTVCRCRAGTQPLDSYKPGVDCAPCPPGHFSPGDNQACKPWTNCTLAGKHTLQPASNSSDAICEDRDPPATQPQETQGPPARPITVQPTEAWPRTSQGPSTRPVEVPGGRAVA
Assay: BLI (ForteBio), biotinylated antibody on SA sensor, OX40-Fc 50 nM bivalent, 1:1 model
The reply should contain only the number, in nM.

Below: 2 binders and their reported Kd.
binder	unitsText	Kd
Antibody-F23-7k (antibody, human IgG1, kappa, V domains shown, also called antibody No. 5) VH: QVQLEESGGGVVQPGESLRLSCAASGFTFSSYGMHWVRQAPGKGLEWVAVISYDGSNQYYADSVKGRFTISRDNSKNTLYLQMNSLRAEDTAVYYCAKDNQDSSPDVGIDYWGQGTLVTVSS VL: DIQMTQSPSSLSASVGDRVTITCRASQSISSYLNWYQQKPGKAPKLLMYAASSLQSGVPSRFSGSGSGTDFTLTISSLQPEDFATYYCLQIDSYPLTFGGGTKVEIKR	nM	2
Antibody-A6-1k (antibody, human IgG1, kappa, V domains shown, also called Antibody-A6-lk; antibody No. 7) VH: QVQLQRSGGGLVQPGGSLRLSCAASGFTFSSYGMTWVRQAPGKGLEWVSAISNSGGSTYYADSVKGRFTISRDNSKNTLYLQMNSLRAEDTAVYYCAKDGPYFDYWGQGTLVTVSS VL: DIQMTQSPSTLSASVGDRVTITCRVSQGIGDDLGWYQQKPGKAPKLLIYKASNLESGVPSRFSGSGSGTDFSLTISSLQPEDFATYFCQQAHSFPPTFGGGTKLEIKR	nM	4

Query: // lookup Kd for Antibody-M5-5k (antibody, human IgG1, kappa, V domains shown, also called antibody No. 8) VH: QVQLVESGGGLIQPGGSLRLSCTASGFTFSTYAMSWVRQAPGKGLEWVSAISGTGDWASYADSVKGRFTTSRDNSRNTLYLQMNNLRDEDTAIYYCAKSSSTVATDFDYGMDVWGQGTLVTVSS VL: ETTLTQSPSTLSASVGDRVTITCRASEEIGSWLAWYQQTPGKAPKRLIYEASSLQSGVPSRFSGSGSGTDFTLTISSLQPEDFATYYCQQYGSYPPTFGQGTKVEIKR
Reply: 2
